# test: qHTS profiling of the MIPE4 collection as inhibitors of Plasmodium falciparum (DD2) proliferation (AID 743345)
# reportedConditions: P. falciparum Dd2 in erythrocytes, SYBR Green DNA, 72 h; at 28.5 µM (top of the series) unless noted
Here the recorded parasite growth remaining, % of DMSO control (lower = more inhibition) is given for each entry.
assayEndpoint: parasite growth remaining, % of DMSO control (lower = more inhibition)

- molecule: "COc1ccc(CN2CCN(C(c3ccc(F)cc3)c3ccc(F)cc3)CC2)c(OC)c1OC"
  value: "8.3%"
- molecule: "CC[C@@H](CO)NCCN[C@@H](CC)CO"
  value: "106%"
- molecule: "COc1cccc(CCc2ccccc2OCC(CN(C)C)OC(=O)CCC(=O)O)c1 (stereo not given)"
  value: "11.9%"
- molecule: "COc1cc2c(cc1O)CC[C@@H]1[C@@H]2CC[C@]2(C)[C@@H](O)CC[C@@H]12"
  value: "96.4%"
- molecule: "Cc1cccc(C)c1NC(=O)CN1CCN(CCCC(c2ccc(F)cc2)c2ccc(F)cc2)CC1"
  value: "52.4%"
